Molecular target: human MC4R (Homo sapiens, UniProt P32245)
Construct: host or cells: HEK-293 cells stably expressing the GScAMP22F split-luciferase cAMP sensor and hMC4R, G418 selection
Sequence (P32245 whole entry): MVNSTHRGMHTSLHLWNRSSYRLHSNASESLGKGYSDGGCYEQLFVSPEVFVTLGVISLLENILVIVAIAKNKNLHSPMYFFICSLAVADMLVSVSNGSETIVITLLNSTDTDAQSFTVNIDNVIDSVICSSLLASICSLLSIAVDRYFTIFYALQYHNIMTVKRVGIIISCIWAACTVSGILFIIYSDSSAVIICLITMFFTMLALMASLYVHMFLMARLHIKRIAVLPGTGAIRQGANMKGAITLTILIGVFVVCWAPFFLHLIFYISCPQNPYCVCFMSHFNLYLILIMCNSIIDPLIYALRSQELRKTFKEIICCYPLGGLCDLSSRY
Assay: split-luciferase cAMP sensor assay, agonist mode (measurement window 1), hMC4R
Format: cell-based
Details: % maximal activation, agonist mode; read-out: MC4R cAMP % max activation
Positions of bridges follow the written chain, without caps; N, C: chain ends. Non-standard residues stand in square brackets, D forms with d. Residues, ends and D or L forms follow the SMILES beside them. dPhe(4-Br) = N[C@H](Cc1ccc(Br)cc1)C(=O)O; Nle = CCCC[C@H](N)C(=O)O; Orn = NCCC[C@H](N)C(=O)O
Exercise: for every item that follows, state its recorded Emax.

- compound: "CCCC[C@H](NC(=O)[C@H](CCCNC(=N)N)NC(C)=O)C(=O)N[C@H]1CSSC[C@@H](C(N)=O)NC(=O)[C@H](Cc2c[nH]c3ccccc23)NC(=O)[C@H](CCCNC(=N)N)NC(=O)[C@@H](Cc2ccccc2)NC(=O)[C@H](CCCN)NC1=O [CTX-1617, Arg-Nle-cyclo(Cys-Orn-D-Phe-Arg-Trp-Cys)] (Ac-R[Nle]C[Orn][dF]RWC-NH2; disulfide 3-8)"
  Emax: "102%"
- compound: "CCCC[C@H](NC(=O)[C@H](CCCNC(=N)N)NC(C)=O)C(=O)N[C@H]1CSSC[C@@H](C(N)=O)NC(=O)[C@H](Cc2ccccc2)NC(=O)[C@H](CCCNC(=N)N)NC(=O)[C@@H](Cc2ccc(Br)cc2)NC(=O)[C@H](CCCNC(=N)N)NC1=O [CTX-1623] (Ac-R[Nle]CR[dPhe(4-Br)]RFC-NH2; disulfide 3-8)"
  Emax: "73%"

Attention now turns to another entry.
Request: Fill in Emax for record CC1(C)NC(=O)CSC[C@@H](C(N)=O)NC(=O)[C@H](Cc2c[nH]c3ccccc23)NC(=O)[C@H](CCCNC(=N)N)NC(=O)[C@@H](Cc2ccccc2)NC(=O)[C@H](Cc2c[nH]cn2)NC1=O [CTX-1647]
Response: 109%

Data provenance: patent US20240391954A1
